Reference source for all entries: paper PMC6270171

# Tested on: zebrafish embryos
# Test Protocol: Heart rates of treated zebrafish embryos
# Type: in vivo, zebrafish (Danio rerio)
# Protocol Conditions: 8 μM, zebrafish embryos; control 21 per 10 s
Observed Property: Heart Rate (per 10 s)
Reply with just the number (in per 10 s).

What the record says about CC(C)=CCc1c2c(c(O)c3c1O[C@]14C(=C[C@@H]5C[C@H]1C(C)(C)O[C@@]4(C/C=C(/C)C(=O)O)C5=O)C3=O)C=CC(C)(C)O2 [Xanthone 3, morellic acid] : Heart Rate is 0

Value of Heart Rate reported for the compound CC(C)=CCc1c2c(c(O)c3c1O[C@]14C(=C[C@@H]5C[C@H]1C(C)(C)O[C@@]4(CC=C(C)C)C5=O)C3=O)C=CC(C)(C)O2 [Xanthone 10, desoxymorellin] is 16

Field Heart Rate (entry CC(C)=CCC/C(C)=C/Cc1c(O)c(CC=C(C)C)c2c(c1O)C(=O)C1=C[C@@H]3C[C@H]4C(C)(C)O[C@@](CC=C(C)C)(C3=O)[C@@]14O2 [Xanthone 11, desoxygambogenin] ) reads 20

For record CC(C)=CCC/C(C)=C/Cc1c(O)c(CC=C(C)C)c2c(c1O)C(=O)C1=C[C@@H]3C[C@H]4C(C)(C)O[C@@](C/C=C(\C)C(=O)O)(C3=O)[C@@]14O2 [Xanthone 9, isogambogenic acid] the listed Heart Rate is 0

* * *

Hi there, I'd appreciate the recorded IC50 for every entry that follows.
# Test system: HUVEC cell line
# Test Protocol: MTT assay, inhibition of proliferation of HUVEC cell line
# Format: cell-based
# Protocol Conditions: Homo sapiens, MTT assay, 50% inhibition of cell growth, read-out: IC50 HUVEC
Could you give me the number in µM? Just the number is fine.

Item CC(C)=CCC/C(C)=C/Cc1c(O)c(CC=C(C)C)c2c(c1O)C(=O)C1=C[C@@H]3C[C@H]4C(C)(C)O[C@@](C/C=C(\C)C(=O)O)(C3=O)[C@@]14O2 [Xanthone 9, isogambogenic acid] ; assay system HUVEC cell line; IC50 reported as 1.73

I looked up CC(C)=CCC/C(C)=C/Cc1c(O)c2c(c3c1O[C@@H](C(C)(C)O)C3)O[C@]13C(=C[C@@H]4C[C@H]1C(C)(C)O[C@@]3(C/C=C(/C)C(=O)O)C4=O)C2=O [Xanthone 4, gambogenific acid] and its IC50 for HUVEC cell line was 2.48

* * *

Field: pIC50. Provide a value for each of the compounds that follow.
# Tested on: HCT-116
# Test Protocol: MTT cytotoxicity assay, HCT-116
# Assay type: cell-based
# Protocol Conditions: Homo sapiens, HCT-116; MTT assay; 50% inhibition of cell growth; read-out: IC50 HCT-116
Kindly note that pIC50 refers to -log10 of the concentration in mol/L and answer with the value alone.

Entry CC(C)=CCCC1(C)C=Cc2c(O)c3c(c(CC=C(C)C)c2O1)O[C@]12C(=C[C@@H]4C[C@H]1C(C)(C)O[C@@]2(C/C=C(\C)C(=O)O)C4=O)C3=O (some centres unmarked) [Xanthone 8, isogambogic acid] , pIC50 reported as 5.80

Data point: CC(C)=CCC/C(C)=C/Cc1c(O)c2c(c3c1O[C@@H](C(C)(C)O)C3)O[C@]13C(=C[C@@H]4C[C@H]1C(C)(C)O[C@@]3(C/C=C(/C)C(=O)O)C4=O)C2=O [Xanthone 4, gambogenific acid] ; pIC50 = 5.35

pIC50 in this record for CC(C)=CCC[C@]1(C)C=Cc2c(O)c3c(c(CC=C(C)C)c2O1)O[C@]12C(=C[C@@H]4C[C@H]1C(C)(C)O[C@@]2(C/C=C(/C)C(=O)O)C4=O)C3=O [Xanthone 1, gambogic acid] : 6.19

For CC(C)=CCc1c2c(c(O)c3c1O[C@]14C(=C[C@@H]5C[C@H]1C(C)(C)O[C@@]4(C/C=C(/C)C=O)C5=O)C3=O)C=CC(C)(C)O2 [Xanthone 5, morellin isomers] the compound record lists pIC50 as 5.56

// field: pIC50; key: CC(C)=CCC/C(C)=C/Cc1c(O)c(CC=C(C)C)c2c(c1O)C(=O)C1=C[C@@H]3C[C@H]4C(C)(C)O[C@@](C/C=C(\C)C(=O)O)(C3=O)[C@@]14O2 [Xanthone 9, isogambogenic acid] ; value = 4.93

* * *

Field: Death Rate. Provide a value for each of the compounds that follow.
# Test system: zebrafish embryos
# Test Protocol: Death rates of treated zebrafish embryos
# Assay type: in vivo, zebrafish (Danio rerio)
# Protocol Conditions: 8 μM, eight embryos per well, control 0

Input CC(C)=CCc1c2c(c(O)c3c1O[C@]14C(=C[C@@H]5C[C@H]1C(C)(C)O[C@@]4(C/C=C(/C)C(=O)O)C5=O)C3=O)C=CC(C)(C)O2 [Xanthone 3, morellic acid] . Output Death Rate: 8/8

// CC(C)=CCc1c2c(c(O)c3c1O[C@]14C(=C[C@@H]5C[C@H]1C(C)(C)O[C@@]4(C/C=C(/C)C=O)C5=O)C3=O)C=CC(C)(C)O2 [Xanthone 5, morellin isomers] : Death Rate value = 8/8

The recorded Death Rate for entry CC(C)=CCC/C(C)=C/Cc1c(O)c(CC=C(C)C)c2c(c1O)C(=O)C1=C[C@@H]3C[C@H]4C(C)(C)O[C@@](C/C=C(\C)C=O)(C3=O)[C@@]14O2 [Xanthone 6, isogambogenin] equals 0

compound CC(C)=CCC/C(C)=C/Cc1c(O)c(CC=C(C)C)c2c(c1O)C(=O)C1=C[C@@H]3C[C@H]4C(C)(C)O[C@@](C/C=C(\C)C(=O)O)(C3=O)[C@@]14O2 [Xanthone 9, isogambogenic acid] , Death Rate observed: 8/8

Record CC(C)=CCC/C(C)=C/Cc1c(O)c(CC=C(C)C)c2c(c1O)C(=O)C1=C[C@@H]3C[C@H]4C(C)(C)O[C@@](C/C=C(/C)C=O)(C3=O)[C@@]14O2 [Xanthone 7, gambogenin] . Reported Death Rate: 0

Form field Death Rate, entry CC(C)=CCC/C(C)=C/Cc1c(O)c(CC=C(C)C)c2c(c1O)C(=O)C1=C[C@@H]3C[C@H]4C(C)(C)O[C@@](CC=C(C)C)(C3=O)[C@@]14O2 [Xanthone 11, desoxygambogenin] : 0

Consider CC(C)=CCC/C(C)=C/Cc1c(O)c2c(c3c1O[C@@H](C(C)(C)O)C3)O[C@]13C(=C[C@@H]4C[C@H]1C(C)(C)O[C@@]3(C/C=C(/C)C(=O)O)C4=O)C2=O [Xanthone 4, gambogenific acid] . Its measured Death Rate is 0

Entry CC(C)=CCCC1(C)C=Cc2c(O)c3c(c(CC=C(C)C)c2O1)O[C@]12C(=C[C@@H]4C[C@H]1C(C)(C)O[C@@]2(C/C=C(\C)C(=O)O)C4=O)C3=O (stereo partly drawn) [Xanthone 8, isogambogic acid] ; Death Rate = 6/8

// field: Death Rate; key: CC(C)=CCc1c2c(c(O)c3c1O[C@]14C(=C[C@@H]5C[C@H]1C(C)(C)O[C@@]4(CC=C(C)C)C5=O)C3=O)C=CC(C)(C)O2 [Xanthone 10, desoxymorellin] ; value = 0

* * *

# Test system: zebrafish embryos
# Test Protocol: Heart rates of treated zebrafish embryos
# Format: in vivo, zebrafish (Danio rerio)
# Protocol Conditions: Tg(flk1:EGFP), zebrafish, in vivo, 24 h, 4 μM
I'd be grateful if you could share measured Heart Rate for these entries.

Given the compound CC(C)=CCc1c2c(c(O)c3c1O[C@]14C(=C[C@@H]5C[C@H]1C(C)(C)O[C@@]4(C/C=C(/C)C=O)C5=O)C3=O)C=CC(C)(C)O2 [Xanthone 5, morellin isomers] and test system zebrafish embryos, the measured Heart Rate is 10 per 10 s

I looked up CC(C)=CCC[C@]1(C)C=Cc2c(O)c3c(c(CC=C(C)C)c2O1)O[C@]12C(=C[C@@H]4C[C@H]1C(C)(C)O[C@@]2(C/C=C(/C)C(=O)O)C4=O)C3=O and its Heart Rate for zebrafish embryos was 0 per 10 s

Value (Heart Rate, zebrafish embryos) for record CC(C)=CCC/C(C)=C/Cc1c(O)c2c(c3c1O[C@@H](C(C)(C)O)C3)O[C@]13C(=C[C@@H]4C[C@H]1C(C)(C)O[C@@]3(C/C=C(/C)C(=O)O)C4=O)C2=O = 17 per 10 s

Value sought: Heart Rate, system zebrafish embryos, item CC(C)=CCCC1(C)C=Cc2c(O)c3c(c(CC=C(C)C)c2O1)O[C@]12C(=C[C@@H]4C[C@H]1C(C)(C)O[C@@]2(C/C=C(\C)C(=O)O)C4=O)C3=O (stereo partly shown) . Result: 13 per 10 s

* * *

Exercise: for every item that follows, state its recorded pIC50.
# Test system: HCT-116
# Test Protocol: MTT cytotoxicity assay, HCT-116
# Type: cell-based
# Protocol Conditions: Homo sapiens, HCT-116; MTT assay; 50% inhibition of cell growth; read-out: IC50 HCT-116
Quick note: pIC50 values are minus log10 of concentrations in mol/L.

Recorded pIC50 for CC(C)=CCC/C(C)=C/Cc1c(O)c(CC=C(C)C)c2c(c1O)C(=O)C1=C[C@@H]3C[C@H]4C(C)(C)O[C@@](C/C=C(\C)C=O)(C3=O)[C@@]14O2 [Xanthone 6, isogambogenin] on HCT-116 was 5.83

Entry CC(C)=CCC/C(C)=C/Cc1c(O)c(CC=C(C)C)c2c(c1O)C(=O)C1=C[C@@H]3C[C@H]4C(C)(C)O[C@@](C/C=C(/C)C=O)(C3=O)[C@@]14O2 [Xanthone 7, gambogenin] : pIC50 on HCT-116 = 5.89

Record CC(C)=CCC/C(C)=C/Cc1c(O)c(CC=C(C)C)c2c(c1O)C(=O)C1=C[C@@H]3C[C@H]4C(C)(C)O[C@@](C/C=C(/C)C(=O)O)(C3=O)[C@@]14O2 [Xanthone 2, gambogenic acid] has HCT-116 pIC50 equal to 5.32
